PROTOCOL DESCRIPTION: Oral toxicity (LD50) in rats
ASSAY CONTEXT: rat, in vivo
QUANTITY NAME: LD50 (mg/kg)
Give bare numbers, in mg/kg.

Record summary for CSc1n[nH]c(NC(=O)c2ccccc2C)n1 : reported LD50 = 3200
